Source: patent US20230134986A1

IC50 listing for selected compounds.
System: MDA-MB-453
Assay Details: XTT viability assay, MDA-MB-453
Format: cell-based
Condition Context: Homo sapiens; Breast Cancer, MDA-MB-453, XTT
Test Readout: IC50 (nM)

Compound | Unit Of Measurement | Reported Value
CC(C)[C@]12O[C@H]1[C@@H]1O[C@]13[C@]1(O[C@H]1C[C@H]1C4=C(CC[C@@]13C)C(=O)OC4)[C@@H]2OC(=O)CCCO[C@@H]1OC(CO)[C@@H](O)C(O)C1O (stereo in doubt) | nM | 530
CC(C)[C@]12O[C@H]1[C@@H]1O[C@]13[C@]1(O[C@H]1C[C@H]1C4=C(CC[C@@]13C)C(=O)OC4)[C@@H]2OC(=O)CCC(=O)O[C@@H]1OC(CO)[C@@H](O)C(O)C1O (some centres unmarked) | nM | 530
